pKd overview
target-system: T1, Mouse TBK1 (1–657, S172A) (mouse, UniProt Q9WUN2 1-657, S172A)
T1 sequence: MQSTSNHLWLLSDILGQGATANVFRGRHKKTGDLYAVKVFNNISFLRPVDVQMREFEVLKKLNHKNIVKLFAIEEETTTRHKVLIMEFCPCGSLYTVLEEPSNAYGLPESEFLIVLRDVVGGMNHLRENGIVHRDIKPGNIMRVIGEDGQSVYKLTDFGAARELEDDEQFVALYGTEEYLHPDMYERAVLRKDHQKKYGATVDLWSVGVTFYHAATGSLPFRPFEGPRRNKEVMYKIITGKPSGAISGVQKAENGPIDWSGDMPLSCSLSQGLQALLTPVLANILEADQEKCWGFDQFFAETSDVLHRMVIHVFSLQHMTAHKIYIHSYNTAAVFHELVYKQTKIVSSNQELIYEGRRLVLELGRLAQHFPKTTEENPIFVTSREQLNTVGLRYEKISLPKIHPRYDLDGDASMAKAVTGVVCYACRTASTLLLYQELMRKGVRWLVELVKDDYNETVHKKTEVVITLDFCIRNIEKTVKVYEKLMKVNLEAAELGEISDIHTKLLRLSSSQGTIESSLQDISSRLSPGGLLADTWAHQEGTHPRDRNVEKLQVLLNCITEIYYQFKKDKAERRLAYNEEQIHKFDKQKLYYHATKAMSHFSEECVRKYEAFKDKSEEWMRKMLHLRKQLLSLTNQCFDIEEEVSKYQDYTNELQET
measurement-notes: SPR
pKd: −log10 of the molar value. Ends that are not written are not given here.

Look over these answered cases.
binder	pKd
hSTING (155–379, T376E F378M S379W), biotin-Avi-His6-SUMO fusion (domain or fragment, biotin on the Avi tag) VAHGLAWSYYIGYLRLILPELQARIRTYNQHYNNLLRGAVSQRLYILLPLDCGVPDNLSMADPNIRFLDKLPQQTGDHAGIKDRVYSNSIYELLENGQRAGTCVLEYATPLQTLFAMSQYSQAGFSREDRLEQAKLFCRTLEDILADAPESQNNCRLIAYQEPADDSSFSLSQEVLRHLRQEEKEEVTVGSLKTSAVPSTSTMSQEPELLISGMEKPLPLREDMW	5.92
SGMEKPLPLREDWE (also: biotin on the Avi tag) [hSTING (366–379, T376E F378W S379E)]	~3.90

Continue with the next binder.
Input line: Quote pKd reported for hSTING (155–379), unphosphorylated (domain or fragment, biotin on the Avi tag) VAHGLAWSYYIGYLRLILPELQARIRTYNQHYNNLLRGAVSQRLYILLPLDCGVPDNLSMADPNIRFLDKLPQQTGDHAGIKDRVYSNSIYELLENGQRAGTCVLEYATPLQTLFAMSQYSQAGFSREDRLEQAKLFCRTLEDILADAPESQNNCRLIAYQEPADDSSFSLSQEVLRHLRQEEKEEVTVGSLKTSAVPSTSTMSQEPELLISGMEKPLPLRTDFS please.
Output line: ~3.77
